# Lookup of reported viability, T/C keyed by entry
test system: 192522-019-R-J2-PDC complex tumor spheroid viability; assay: Anticancer human tumor 192522-019-R-J2-PDC patient-derived colon adenocarcinoma cell line growth inhibition [POLQ]; conditions: second compound 1 µM; first compound 0.00316 µM; stronger effect = lower value;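 also: spheroids exposed to drugs for seven days before reading; 100% = DMSO vehicle control viability in luminescence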
readout.type: viability, T/C (%)

[
  {
    "compound": "COc1cccc(OCCCN)c1-c1cc(Nc2cnc(C#N)cn2)n[nH]1 + Cc1cccc(N(C)C(=O)C2C(O)CCN2c2nc(C)cc(C(F)(F)F)c2C#N)c1",
    "system.name": "192522-019-R-J2-PDC complex tumor spheroid viability",
    "readout.type": "viability, T/C",
    "readout.units": "%",
    "value.reported": 115
  },
  {
    "compound": "Cn1ncnc1[C@H]1c2n[nH]c(=O)c3cc(F)cc(c23)N[C@@H]1c1ccc(F)cc1 + Cc1cccc(N(C)C(=O)C2C(O)CCN2c2nc(C)cc(C(F)(F)F)c2C#N)c1",
    "system.name": "192522-019-R-J2-PDC complex tumor spheroid viability",
    "readout.type": "viability, T/C",
    "readout.units": "%",
    "value.reported": 109
  },
  {
    "compound": "Cn1ncnc1[C@H]1c2n[nH]c(=O)c3cc(F)cc(c23)N[C@@H]1c1ccc(F)cc1 + COC1C(OC(N)=O)C(O)C(Oc2ccc3c(O)c(NC(=O)c4ccc(O)c(CC=C(C)C)c4)c(=O)oc3c2C)OC1(C)C",
    "system.name": "192522-019-R-J2-PDC complex tumor spheroid viability",
    "readout.type": "viability, T/C",
    "readout.units": "%",
    "value.reported": 101
  },
  {
    "compound": "Cn1ncnc1[C@H]1c2n[nH]c(=O)c3cc(F)cc(c23)N[C@@H]1c1ccc(F)cc1 + Nc1ccc(C#CCN(C(=O)Cc2ncc(C(F)(F)F)cc2C(F)(F)F)c2ccc(F)cc2)nn1",
    "system.name": "192522-019-R-J2-PDC complex tumor spheroid viability",
    "readout.type": "viability, T/C",
    "readout.units": "%",
    "value.reported": 102
  },
  {
    "compound": "CC[C@@]1(O)C(=O)OCc2c1cc1n(c2=O)Cc2cc3c(CN(C)C)c(O)ccc3nc2-1 + COC1C(OC(N)=O)C(O)C(Oc2ccc3c(O)c(NC(=O)c4ccc(O)c(CC=C(C)C)c4)c(=O)oc3c2C)OC1(C)C",
    "system.name": "192522-019-R-J2-PDC complex tumor spheroid viability",
    "readout.type": "viability, T/C",
    "readout.units": "%",
    "value.reported": 105
  },
  {
    "compound": "CCc1c2c(nc3ccc(O)cc13)-c1cc3c(c(=O)n1C2)COC(=O)[C@]3(O)CC + Cc1cccc(N(C)C(=O)C2C(O)CCN2c2nc(C)cc(C(F)(F)F)c2C#N)c1",
    "system.name": "192522-019-R-J2-PDC complex tumor spheroid viability",
    "readout.type": "viability, T/C",
    "readout.units": "%",
    "value.reported": 95.1
  },
  {
    "compound": "C=CCn1c(=O)c2cnc(Nc3ccc(N4CCN(C)CC4)cc3)nc2n1-c1cccc(C(C)(C)O)n1 + Cc1cccc(N(C)C(=O)C2C(O)CCN2c2nc(C)cc(C(F)(F)F)c2C#N)c1",
    "system.name": "192522-019-R-J2-PDC complex tumor spheroid viability",
    "readout.type": "viability, T/C",
    "readout.units": "%",
    "value.reported": 112
  },
  {
    "compound": "CC[C@@]1(O)C(=O)OCc2c1cc1n(c2=O)Cc2cc3c(CN(C)C)c(O)ccc3nc2-1 + Cc1cccc(N(C)C(=O)C2C(O)CCN2c2nc(C)cc(C(F)(F)F)c2C#N)c1",
    "system.name": "192522-019-R-J2-PDC complex tumor spheroid viability",
    "readout.type": "viability, T/C",
    "readout.units": "%",
    "value.reported": 111
  },
  {
    "compound": "COc1cccc(OCCCN)c1-c1cc(Nc2cnc(C#N)cn2)n[nH]1 + COC1C(OC(N)=O)C(O)C(Oc2ccc3c(O)c(NC(=O)c4ccc(O)c(CC=C(C)C)c4)c(=O)oc3c2C)OC1(C)C",
    "system.name": "192522-019-R-J2-PDC complex tumor spheroid viability",
    "readout.type": "viability, T/C",
    "readout.units": "%",
    "value.reported": 84.8
  },
  {
    "compound": "C=CCn1c(=O)c2cnc(Nc3ccc(N4CCN(C)CC4)cc3)nc2n1-c1cccc(C(C)(C)O)n1 + COC1C(OC(N)=O)C(O)C(Oc2ccc3c(O)c(NC(=O)c4ccc(O)c(CC=C(C)C)c4)c(=O)oc3c2C)OC1(C)C",
    "system.name": "192522-019-R-J2-PDC complex tumor spheroid viability",
    "readout.type": "viability, T/C",
    "readout.units": "%",
    "value.reported": 95.4
  }
]
